test system: TK-10 renal; assay: NCI-60 one-dose screen, 48 h (100 = growth as untreated, 0 = no growth, -100 = all killed); conditions: 10 µM unless noted
About 83,000 compounds went through this panel and 20% of them were active in at least one assay; those are over-represented in the sample as a whole.
Measured Parameter: growth (%)
Respond with the bare value in %.

Supply growth value. Item: `COc1cc(/C=C/C(=O)c2ccc(S(=O)(=O)NCCNc3nc(N(C)C)nc(N4CCOCC4)n3)cc2)cc(OC)c1OC` 13.5

Supply growth value. Item: `Cc1ccc(C(=O)Nc2cccc(C(=O)NC(=S)Nc3ccc(S(N)(=O)=O)cc3)c2)cc1` 104

Supply growth value. Item: `O=C(Nc1ccc(Br)cc1)Nc1ccc(-c2ccc3c(c2)NC(=O)/C3=C\c2ccc[nH]2)cc1` 52.3

Supply growth value. Item: `C=CCSc1nnc(-c2ccc(-c3nc4ccc(Cl)cc4[nH]3)cc2)o1` 90.3

Supply growth value. Item: `O=C1Nc2cc(-c3ccc(NS(=O)(=O)c4ccc(-c5ccccc5)cc4)cc3)ccc2/C1=C/c1ccc[nH]1` 49

Supply growth value. Item: COc1ccc([C@H]2C(C(=O)c3ccc(Cl)cc3)C3(N[C@@H]2c2ccccc2)C(=O)Nc2ccccc23)cc1 (stereo partly drawn) 43.4

Supply growth value. Item: `O=C(Nc1nc2ccc([N+](=O)[O-])cc2s1)Nc1ccc(Cl)cc1Cl` 40.9

Supply growth value. Item: `COc1ccc(NC(=O)N/N=C/c2c[nH]c3ccccc23)cc1` 74.4

###

tested on: TK-10 renal; test: NCI-60 one-dose screen, 48 h (100 = growth as untreated, 0 = no growth, -100 = all killed); conditions: 10 µM unless noted
This is part of a sample that, as a whole, favours compounds with a hit. Of some 83,000 tested, about 20% had one in any assay. Calls of active or inactive are those of the source. How the source made its calls: active means growth percent below 10; inactive means the rest.
Measured Parameter: growth

Supply growth value. Item: `COc1ccc2ccccc2c1/C=C1\SC(=Nc2ccc(O)cc2)NC1=O` 36.9% (inactive)

Supply growth value. Item: COc1cc(C2CC(c3ccc(Cl)cc3)=Nc3c(N)nc(N)nc3N2)ccc1Oc1nc(Nc2ccc(F)cc2)nc(N(C)C)n1 (stereo not drawn) 72.1% (inactive)

Supply growth value. Item: CCOc1ccccc1[C@H]1C(C(=O)c2ccc(Cl)cc2)C2(N[C@@H]1c1ccccc1)C(=O)Nc1ccc(Cl)cc12 (stereo partly drawn) 61.4% (inactive)

###

Field: growth. Provide a value for each of the compounds that follow.
System: NCI/ADR-RES ovarian
Test: NCI-60 one-dose screen, 48 h (100 = growth as untreated, 0 = no growth, -100 = all killed)
Settings: 10 µM unless noted
Method: Growth inhibition of the NCI/ADR-RES human […] tumor cell line is measured as a screen for anti-cancer activity. Cells are grown in 96 well plates and exposed to the test compound for 48 hours. Compounds are tested at a single concentration, which is 10^-5 M for most compounds. The reported endpoint is percent growth (GI% or GIPRCNT), where numbers from 0 - 100% represent growth inhibition, and numbers from -100% - 0 represent cell death. For example, a value of 40 represents 60% growth inhibition. […]
Compounds without any hit were thinned out: in the full panel of roughly 83,000, 20% have a hit.
Respond with the bare value in %.

Supply growth value. Item: `CCCn1c(NC(=O)c2cccc(C(N)=O)c2)nc2ccc(CN3CCCCC3)cc21` 111

Supply growth value. Item: `OCCn1cc(-c2nc3ccc4[nH]ncc4c3c3c2CCCC3)cn1` 76.8

Supply growth value. Item: `Cc1ccc(Cl)cc1NC(=O)Nc1nc2ccc([N+](=O)[O-])cc2s1` -17.1

Supply growth value. Item: `COC(=O)c1ccc(-c2c(-c3ccccc3)c(F)c3oc(C(=O)OC)c(N)c3c2-c2ccccc2)cc1` 94.3

Supply growth value. Item: CCOc1ccccc1[C@H]1C(C(=O)c2ccc(Cl)cc2)C2(N[C@@H]1c1ccccc1)C(=O)Nc1ccccc12 (some centres undefined) -40.6

Supply growth value. Item: `COc1ccc(-c2nnc3c(/C=C/c4ccc(Br)cc4)nc4ccccc4n23)cc1` 67.5

Supply growth value. Item: CCOc1ccccc1[C@H]1C(C(=O)c2ccc(Cl)cc2)C2(N[C@@H]1c1ccccc1)C(=O)Nc1ccc(Cl)cc12 (some centres undefined) 12.6

Supply growth value. Item: `N#C/C(=C/c1ccc([N+](=O)[O-])cc1)c1nnc(NC(=O)c2ccc(-n3c(=O)[nH]c4ccccc4c3=O)cc2)s1` 94.2

Supply growth value. Item: `Fc1ccc(Nc2nnc(-c3c[nH]c4ccccc34)o2)cc1` 74.6

Supply growth value. Item: `Cn1cc(-c2cc(N)n3nc(-c4c[nH]c5ccc(F)cc45)cc3n2)c2cccnc21` -44.7

Supply growth value. Item: COc1ccc2c(c1)C(Sc1ccc(Cl)cc1)c1c(nc(N)c(C#N)c1N)O2 (centres undefined) 73.6

Supply growth value. Item: `C=CCSc1nnc(-c2ccc(-c3nc4ccc(Cl)cc4[nH]3)cc2)o1` 54.3

Supply growth value. Item: COc1ccc([C@H]2C(C(=O)c3ccc(Cl)cc3)C3(N[C@@H]2c2ccccc2)C(=O)Nc2ccccc23)cc1 (some centres undefined) 12.2

Supply growth value. Item: `CCCCCCCOc1ccc(S(=O)(=O)Nc2ccc(C)c(F)c2C(=O)O)cc1` 94.4

Supply growth value. Item: `O=C(N/N=C/c1occc1Br)c1[nH]c2ccc(Br)cc2c1-c1ccccc1` -53.5

Supply growth value. Item: `CN(C)c1nc(NCCNS(=O)(=O)c2ccc(C(=O)/C=C/c3ccc(C(F)(F)F)cc3)cc2)nc(N2CCOCC2)n1` -31.5

Supply growth value. Item: Cc1cc(C(NC(=O)C2CC3(CC(Nc4cccc5c4C(=O)N(C4CCC(=O)NC4=O)C5=O)C3)C2)c2ccc3c(c2)OC(F)(F)O3)c(O)c2ncccc12 (centres undefined) 12.2

Supply growth value. Item: `NS(=O)(=O)c1ccc(Nc2nc(SCC(=O)c3ccc(F)cc3)nc3ccccc23)cc1` 28.7

Supply growth value. Item: `CN1CCN(C(=O)CCN(C(=O)Oc2cc3c(c4ccccc24)[C@H](CCl)CN3C(=O)c2cc3cc(OCCCN4CCC4)ccc3[nH]2)[C@H]2CCSSC2)CC1` -46.7

Supply growth value. Item: `Cc1ccc(C(=O)Nc2cc(-n3ccnc3)cc(C(F)(F)F)c2)cc1-n1cc(-c2cnc3cccnn23)nn1` 115

Supply growth value. Item: `CS(=O)(=O)Nc1cccc(-n2cnc3cc(-c4ccc(O)cc4)ccc32)c1` 29.8

Supply growth value. Item: `N#Cc1cc(-c2ccc3ncnc(N4CCc5cc(F)c(Cl)cc54)c3c2)cnc1N` 47.2

Supply growth value. Item: `COc1ccc(Nc2nnc(-c3c[nH]c4ccccc34)o2)cc1` 73.8

Supply growth value. Item: COc1cc(C2CC(c3ccc(F)cc3)=Nc3c(N)nc(N)nc3N2)ccc1Oc1nc(Nc2ccc(F)cc2)nc(N(C)C)n1 (centres undefined) 48.5
